# Tested on: SK-MEL-28 melanoma
# protocol.text: NCI tumour cell line growth inhibition, 48 h

# compound, TGI
rows = [
    ("COC(=O)c1ccc2c(c1)CC1(C2)Cc2ccccc2C1=O (configuration not stated)", "38.7 µM"),
    ("CC[C@H]1OC(=O)[C@H](C)[C@@H](O[C@H]2C[C@@](C)(OC)[C@@H](O)[C@H](C)O2)[C@H](C)[C@@H](O[C@@H]2O[C@H](C)C[C@H](N(C)C)[C@H]2O)[C@](C)(OC)C/C(C)=C2/O[C@@]1(C)C=C2C", "3.32 µM"),
    ("C[C@@H]1CCc2ncc(F)cc2[C@H]2CCCN2c2ccn3ncc(c3n2)C(=O)N1", "> 100 µM"),
    ("O=C1OC(=O)C([Se]c2ccccc2)=C1[Se]c1ccccc1", "> 100 µM"),
    ("OCCN(CO)CO", "> 100 µM"),
    ("C=C1C(=O)O[C@H]2C1C[C@H](O)[C@@]1(C)OC1CC[C@@]1(C)O[C@H]21 (some centres not stated)", "35.9 µM"),
    ("Cc1cc(C)nc(NS(=O)(=O)c2ccc(Nc3c4ccccc4nc4c(C(=O)NCCN(C)C)cccc34)cc2)n1", "20.4 µM"),
    ("O=C(O)c1ccccc1NCn1c(=S)sc2ccccc21", "> 100 µM"),
    ("COc1cccc(/C=N\\NC(=O)C(C)SC(C)C(=O)N/N=C/c2cccc(OC)c2)c1 (configuration not stated)", "> 72.8 µM"),
    ("CC1(C)OC[C@@H]([C@@]2(COC(c3ccccc3)(c3ccccc3)c3ccccc3)CC=CC(=O)O2)O1", "> 100 µM"),
    ("CN(N=O)c1nc2c(C(N)=O)ncn2s1", "> 100 µM"),
    ("O=c1[nH][nH]c(=O)c2c1ccc1oc3ccccc3c12", "> 100 µM"),
    ("Cc1nc2ccccc2c(=O)n1/N=C(\\N=Nc1cc(Cl)ccc1Cl)c1ccccc1", "> 100 µM"),
    ("COc1ccc(N2C(=O)C(=O)C3(CCCCC3)C2=O)c2ccccc12", "> 10 µM"),
    ("O=C(Cn1c2ccc(Br)cc2c2nc3ccccc3nc21)Nc1ccccc1", "> 100 µM"),
    ("CN1CCc2ccccc2C(C(=O)c2ccc3c(c2)OCO3)C1=O (configuration not stated)", "> 100 µM"),
    ("O=C1NC2(CCNCC2)Oc2ccccc21", "> 100 µM"),
    ("CC(C)[Si]1(C(C)C)OCC2OC(n3ccc(=O)[nH]c3=O)C([Se]c3ccccc3)C2O[Si](C(C)C)(C(C)C)O1 (configuration not stated)", "12.5 µM"),
    ("COC(=O)[C@@](NC(=O)OCc1ccccc1)([C@H](C)O)C(F)(F)F", "> 100 µM"),
    ("Nc1ccccc1C#Cc1ccccc1C#Cc1cccs1", "41 µM"),
    ("CC(C)(C)O/N=C/c1cc(NC(=S)c2ccsc2)ccc1Cl", "39.2 µM"),
    ("COc1ccc2c(c1)C(=O)c1c-2c(OCCN(C)C)nc2cc(OC)c(OC)cc12", "35.4 µM"),
    ("Nc1nc(SCC(=O)c2ccc(Br)cc2)c2[nH]cnc2n1", "> 100 µM"),
    ("CNC(=O)OCc1nc(SC)n(C)c1COC(=O)NC", "380 µM"),
    ("O=[N+]([O-])c1ccc(-c2nn3c(C45CC6CC(CC(C6)C4)C5)nnc3s2)c(Cl)c1", "> 100 µM"),
    ("Cn1cnnc1[S-].[Au+].c1ccc([PH+](c2ccccc2)c2ccccc2)cc1", "2.91 µM"),
    ("COC(=O)/C=C/[C@@H]1[C@H](C)N1S(=O)(=O)c1ccc(C)cc1 (some centres not stated)", "> 100 µM"),
    ("C[As](C)SC1OCC(O)C(O)C1O (configuration not stated)", "3.33 µM"),
    ("Cc1ccc(S(=O)(=O)N/N=C2/CCC3(O)CC2(C)CCC2[C@H]3CC2(C)C)cc1 (some centres not stated)", "61.2 µM"),
    ("C/C(C=O)=C/[C@@]1(C)O[C@@H](C)[C@@](C)(O)[C@@H]1O", "> 100 µM"),
    ("CC1(C)N=C(N)N=C(N)N1c1cccc(CCc2ccccc2)c1", "> 68.9 µM"),
    ("CCOC1Oc2ccc(C)cc2C(=O)/C1=C\\Nc1ccc(S(N)(=O)=O)cc1 (configuration not stated)", "> 50 µM"),
    ("CC(C)OP(=O)(OC(C)C)C(C)(C)O", "> 100 µM"),
    ("COC(=O)/C=C(\\C)CCC1SC1(C)C (configuration not stated)", "> 100 µM"),
    ("OCC(O)C(O)C(O)C(O)c1nnc2c(-c3ccccc3)nc3ccccc3n12 (configuration not stated)", "> 100 µM"),
    ("Cc1ccc(-c2cc(-c3ccccc3)c(C#N)c(=O)[nH]2)cc1", "> 100 µM"),
    ("O=[N+]([O-])/C(Cl)=C(/C(Cl)=C(Cl)Cl)N1CCOCC1", "34.3 µM"),
    ("CCCc1cc(OC(=O)c2c(O)cc(OC)cc2CCC)cc(O)c1C(=O)O", "70.6 µM"),
    ("O=C1Nc2ccc3c(c2/C1=C\\c1cc2c(cc1Br)OCO2)OCO3", "5.32 µM"),
    ("COc1cc(C2c3cc4c(cc3C(=O)C3CCC(=O)N32)OCO4)cc(OC)c1O (configuration not stated)", "> 50 µM"),
    ("COc1ccc(COCC[C@H](C)OC2OC(CO)C(O)C(O)C2O)cc1 (some centres not stated)", "> 100 µM"),
    ("COc1ccc(Br)c(C(=O)N2CCc3ccccc32)c1N", "> 100 µM"),
]

====

Listed next: entries and their corresponding TGI.
# Test system: MCF7 breast
# protocol.text: NCI tumour cell line growth inhibition, 48 h

# compound, study.target, TGI
data = [
    ("O=[N+]1[C@H](c2ccccc2)[C@H](c2ccccc2)N1[O-]", "MCF7 breast", "30.5 µM"),
    ("CCOc1nc2c(N3CCCC3)nc(N3CCNCC3)nc2nc1NCc1ccccc1", "MCF7 breast", "2.86 µM"),
    ("C=CCN1CCC(c2cc(C(=O)OCC)[nH]c2-c2cc(C)no2)C1=O (stereo not drawn)", "MCF7 breast", "> 100 µM"),
    ("COc1ccc(N2C(=O)C(=O)C3(CCCCC3)C2=O)c2ccccc12", "MCF7 breast", "> 10 µM"),
    ("O=c1cccc(Cl)[nH]1", "MCF7 breast", "> 100 µM"),
    ("NC1=NCN(C2OC(CO)C(O)C2O)C(=O)N1 (stereo not drawn)", "MCF7 breast", "328 µM"),
    ("CN(N=O)c1nc2c(C(N)=O)ncn2s1", "MCF7 breast", "> 100 µM"),
    ("CCOC(=O)c1c(NC(=O)c2ccc(Cl)cc2)sc2c(CN(C)C)c(O)ccc12", "MCF7 breast", "> 100 µM"),
]

====

# System: SNB-75 CNS
# protocol.text: NCI tumour cell line growth inhibition, 48 h
Here, each record is paired with measured TGI data.
observed.property: TGI (µM)

# molecule, observed.property, output.unit, limit.sign, endpoint.value
records = [
    ("CC(C)OP(=O)(O)c1ncc(-c2ccc(C(F)(F)F)cc2)c(NC2CCCCCC2)n1", "TGI", "µM", ">", 100),
    ("CN1CC[C@H](c2c(O)cc(O)c3c(=O)cc(-c4ccccc4Cl)oc23)[C@H](O)C1", "TGI", "µM", "=", 0.155),
    ("OCCN(CO)CO", "TGI", "µM", ">", 100),
    ("C1=CC2CCC1CN2CCC1CNc2ccccc21 (stereo not given)", "TGI", "µM", ">", 100),
    ("CCc1ccc2c(c1)N(CCO)C1=C(C(=O)OC1)C2c1cc(OC)c(OC)c(OC)c1 (stereo not given)", "TGI", "µM", ">", 50),
    ("O=C(Cc1nc2ccccc2[nH]c1=O)c1c[nH]c2ccccc12", "TGI", "µM", ">", 100),
    ("CC(C)(C)OC(=O)N1CCCC1C(=O)NC(c1ccccc1)c1ccccc1 (stereo not given)", "TGI", "µM", ">", 100),
    ("OCC(O)C(O)C(O)C(O)c1nnc2c(-c3ccccc3)nc3ccccc3n12 (stereo not given)", "TGI", "µM", ">", 100),
    ("CC(=O)N1C(Nc2nccs2)CCN1c1ccccc1 (stereo not given)", "TGI", "µM", ">", 10),
    ("COc1cc2c3c(n(CCCNCCCNCCCN)c(=O)c2cc1OC)-c1cc2c(cc1C3=O)OCO2", "TGI", "µM", ">", 100),
    ("NC(=O)/C(=C/n1cnc(-c2cc(C(F)(F)F)cc(C(F)(F)F)c2)n1)c1cncnc1", "TGI", "µM", "=", 5.48),
    ("CC(Cn1c2c(c3cc(O)ccc31)CCc1ccc(O)cc1-2)N(C)C (stereo not given)", "TGI", "µM", "=", 51.2),
    ("COc1cc(C2S/C(=C/c3ccccc3)C(=O)N2c2cccc(NC(C)=O)c2)cc(OC)c1OC (stereo not given)", "TGI", "µM", "=", 28),
    ("CCCCC1(C(NC(=O)c2ccccc2Cl)c2ccncc2)C(=O)N(c2ccccc2)N(c2ccccc2)C1=O (stereo not given)", "TGI", "µM", "=", 71.4),
    ("COc1cc2cc(Oc3cccc(NC(=O)Nc4cc(C(F)(F)F)cc(C(F)(F)F)c4)c3)c(C)nc2cc1OC", "TGI", "µM", "=", 5.05),
    ("C[C@@H]1CCc2ncc(F)cc2[C@H]2CCCN2c2ccn3ncc(c3n2)C(=O)N1", "TGI", "µM", "=", 97),
    ("Cc1ccc(S(=O)C(C)C(Cl)c2ccccc2)cc1 (stereo not given)", "TGI", "µM", ">", 100),
    ("COc1ccc(/C=C\\c2cc(OC)c(OC)c(OC)c2)cc1", "TGI", "µM", "=", 0.000932),
    ("C=C1C(O)C2(O)OCC34C(CC5C(C)=CC(=O)C(O)C5(C)C23)OC(=O)C(OC(=O)C/C=C/CCCCCCCC)C14 (stereo not given)", "TGI", "µM", "=", 0.0667),
    ("O=C1NCN(c2ccccc2)C12CCN(CC1COc3ccccc3O1)CC2 (stereo not given)", "TGI", "µM", "=", 71.4),
    ("COc1ccc2[nH]c3c(c2c1)[C@H]1CCC(C(C)(C)C)C[C@H]1[C@H]1C(=O)N(c2ccccc2)C(=O)[C@@H]31 (stereo not given in full)", "TGI", "µM", "=", 14.6),
    ("CCOc1nc2c(N3CCCC3)nc(N3CCNCC3)nc2nc1NCc1ccccc1", "TGI", "µM", "=", 2.46),
    ("CO/C(=N\\N=C\\c1ccc(Cl)c(Cl)c1)c1ccncc1", "TGI", "µM", ">", 10),
    ("CCCCCCCCC(O)c1ccc(/C=C\\C(O)CCCC(=O)O)s1 (stereo not given)", "TGI", "µM", ">", 100),
    ("CC1=CCC(C(C)(C)NC(=O)c2ccccc2)C/C1=N/O (stereo not given)", "TGI", "µM", ">", 100),
    ("COc1ccc2c(c1)C(=O)c1c-2c(OCCN(C)C)nc2cc(OC)c(OC)cc12", "TGI", "µM", "=", 26.1),
    ("COc1cc(-c2nn(-c3cccc(NC(=O)CCNc4ccc(N5CCOCC5)cc4)c3)cc2-c2ccncc2)ccc1Cl", "TGI", "µM", ">", 100),
    ("Cc1c(/C=N/NC(=S)N2CCCCC2)c(=O)n(-c2ccccc2)n1C", "TGI", "µM", ">", 100),
    ("O=CNc1ccccc1OCCOc1ccccc1NC=O", "TGI", "µM", ">", 100),
    ("CCOC(=O)CCC(NC(=O)c1ccc(NC(OC)c2nc3cc(C(F)(F)F)ccc3nc2-c2ccccc2)cc1)C(=O)OCC (stereo not given)", "TGI", "µM", "=", 36.5),
    ("COc1ccc2nc3cc(Cl)ccc3c(NCCCN3CCN(CCCNc4ccc5nnn6c7ccccc7c(=O)c4c56)CC3)c2c1", "TGI", "µM", ">", 25),
    ("CC(C)(O)c1cc2c(cc1C(C)(C)O)-c1ccccc1-2", "TGI", "µM", ">", 100),
    ("COc1cc(OC)c2c(=O)c3cccc(C)c3n(C)c2c1", "TGI", "µM", ">", 100),
    ("CCCNCCCCC(NC(C)=O)C(=O)NCc1ccccc1 (stereo not given)", "TGI", "µM", ">", 100),
    ("COc1ccc(C2NC(=S)NC3=C2CCOc2c3ccc3ccccc23)cc1 (stereo not given)", "TGI", "µM", ">", 100),
    ("Nc1nc(SCC(=O)c2ccc(Br)cc2)c2[nH]cnc2n1", "TGI", "µM", "=", 73),
    ("Cc1ccc(-c2cc(-c3ccccc3)c(C#N)c(=O)[nH]2)cc1", "TGI", "µM", ">", 100),
    ("CCOC(=O)/C(=C\\c1ccc2ccccc2c1)P(=O)(OCC)OCC", "TGI", "µM", "=", 14.8),
    ("CC[C@H]1OC(=O)[C@H](C)[C@@H](O[C@H]2C[C@@](C)(OC)[C@@H](O)[C@H](C)O2)[C@H](C)[C@@H](O[C@@H]2O[C@H](C)C[C@H](N(C)C)[C@H]2O)[C@](C)(OC)C/C(C)=C2/O[C@@]1(C)C=C2C", "TGI", "µM", "=", 2.64),
    ("COc1cc(C2c3cc4c(cc3C(=O)C3CCC(=O)N32)OCO4)cc(OC)c1O (stereo not given)", "TGI", "µM", ">", 50),
]
